These measurements were taken from PubChem BioAssay (NCATS).

Let's look at some molecules and their measured Potency.
Test: qHTS profiling for inhibitors of Plasmodium falciparum proliferation (AID 504749); further: potency means the concentration at half of the fitted maximal effect; nearly all actives have a fitted effect of over 60% in size
Settings: P. falciparum in erythrocytes, SYBR Green DNA, 72 h; parasite line B
Inconclusive results are not listed. Activity calls are given as the source filed them. The call rests on the fitted dose curve; in most records, active means well fitted inhibition curve with a large enough effect; inconclusive means small, poorly fitted or top-dose-only effect; inactive means flat fitted curve, though single readings scatter.

>  <molecule>
CC1(C)O[C@H]2C[C@@H]3[C@H]4CCC5=CC(=O)CC[C@@]5(C)[C@]4(F)[C@@H](O)C[C@@]3(C)[C@@]2(C(=O)CCl)O1

>  <Potency>
1580 nM (active)

$$$$
>  <molecule>
CO[C@]12C(COC(N)=O)C3=C(C(=O)C(C)=C(N)C3=O)N1CC1NC12 (some centres undefined)

>  <Potency>
1260 nM (active)

$$$$
>  <molecule>
CC(=O)O[C@@]1(C(C)=O)CCC2C3CC(C)C4=CC(=O)CC[C@@]4(C)C3CC[C@]21C (some centres undefined)

>  <Potency>
12600 nM (active)

$$$$
>  <molecule>
COc1ccc(CC(N)C(=O)NC2C(CO)OC(n3cnc4c(N(C)C)ncnc43)C2O)cc1 (centres undefined)

>  <Potency>
1000 nM (active)

$$$$
